These entries and their values trace back to paper PMC9027532.

assay: Pharmacokinetic study in rats (plasma, LC-MS/MS, NCA); settings: male, Sprague-Dawley, rat, plasma, po, 100 mg/kg, Mean plasma concentration, rats, 8 h, multiple p.o. 100 mg/kg
measure-name: concentration at 8 h (ng/mL)
Please give a number only; it is taken to be in ng/mL.

Item under review: CC(=O)Nc1ccc(NC(=O)c2ccc(C(C)=O)o2)cc1 [Compound 25a] . Reported concentration at 8 h?
494

---

experiment: Tissue distribution study in rats; format: in vivo, SD rats; conditions: male, Sprague-Dawley, rat, plasma (tissue distribution study), single oral dose 100 mg/kg, read-out: Kp (tissue plasma distribution coefficient)
measure-name: Kp
In your answer, state the number alone without any accompanying words.

Name the recorded Kp for CC(=O)Nc1ccc(NC(=O)c2ccc(C(C)=O)o2)cc1 [Compound 25a] .
1

---

assay: Tissue distribution study in rats; assay type: in vivo, SD rats; settings: male, Sprague-Dawley, rat, kidney, single oral dose 100 mg/kg
measure-name: Cmax (ng/mL)
State just the number; it will be interpreted in ng/mL.

I have this compound here, CC(=O)Nc1ccc(NC(=O)c2ccc(C(C)=O)o2)cc1 [Compound 25a] , and I need its recorded Cmax.
1480

---

experiment: Pharmacokinetic study in rats (plasma, LC-MS/MS, NCA); settings: male, Sprague-Dawley, rat, plasma, po, 100 mg/kg, Mean plasma concentration, rats, 0.5 h, multiple p.o. 100 mg/kg
measure-name: concentration at 0.5 h (ng/mL)
The reply should contain only the number, in ng/mL.

// concentration at 0.5 h lookup, key: CC(=O)Nc1ccc(NC(=O)c2ccc(C(C)=O)o2)cc1 [Compound 25a]
1260

---

assay: Pharmacokinetic study in rats (plasma, LC-MS/MS, NCA); details: male, Sprague-Dawley, rat, plasma, po, 100 mg/kg, Mean plasma concentration, rats, 12 h, multiple p.o. 100 mg/kg
measure-name: concentration at 12 h (ng/mL)
Give the number; ng/mL is assumed, so skip it.

Recorded concentration at 12 h of CC(=O)Nc1ccc(NC(=O)c2ccc(C(C)=O)o2)cc1 [Compound 25a] , please.
245

---

assay: Tissue distribution study in rats; type: in vivo, SD rats; settings: male, Sprague-Dawley, rat, spleen, single oral dose 100 mg/kg
measure-name: Cmax (ng/mL)
Supply the numeric figure in ng/mL, leaving out any unit text.

Which value of Cmax has been reported for CC(=O)Nc1ccc(NC(=O)c2ccc(C(C)=O)o2)cc1 [Compound 25a] in the records?
934

---

assay: Pharmacokinetic study in rats (plasma, LC-MS/MS, NCA); conditions: male, Sprague-Dawley, rat, plasma, po, 100 mg/kg, Mean plasma concentration, rats, 2 h, multiple p.o. 100 mg/kg
measure-name: concentration at 2 h (ng/mL)
Express your answer in ng/mL, writing the number without its unit.

Given the compound CC(=O)Nc1ccc(NC(=O)c2ccc(C(C)=O)o2)cc1 [Compound 25a] , what is its reported concentration at 2 h?
1710

---

experiment: Pharmacokinetic study in rats (plasma, LC-MS/MS, NCA); conditions: male, Sprague-Dawley, rat, plasma, po, 100 mg/kg, tmax, rats, multiple p.o. 100 mg/kg, twice per day for 7 days
measure-name: Tmax at 7 days

Which Tmax at 7 days reading was recorded for the compound CC(=O)Nc1ccc(NC(=O)c2ccc(C(C)=O)o2)cc1 [Compound 25a] ?
~2 h

---

assay: Tissue distribution study in rats; assay type: in vivo, SD rats; conditions: male, Sprague-Dawley, rat, brain, single oral dose 100 mg/kg
measure-name: Tmax (min)
I only need the number, in min, no unit after it.

Entry under review: CC(=O)Nc1ccc(NC(=O)c2ccc(C(C)=O)o2)cc1 [Compound 25a] . Reported Tmax?
54

---

assay: Pharmacokinetic study in rats (plasma, LC-MS/MS, NCA); settings: male, Sprague-Dawley, rat, plasma, po, 25 mg/kg, Cmax, rats, single p.o. 25 mg/kg
measure-name: Cmax

// query Cmax value for entry CC(=O)Nc1ccc(NC(=O)c2ccc(C(C)=O)o2)cc1 [Compound 25a]
515 ng/mL

---

experiment: Pharmacokinetic study in rats (plasma, LC-MS/MS, NCA); details: male, Sprague-Dawley, rat, plasma, po, 100 mg/kg, Mean plasma concentration, rats, 4 h, single p.o. 100 mg/kg
measure-name: concentration at 4 h (ng/mL)
State the answer as a number, implicitly in ng/mL.

Reported concentration at 4 h for CC(=O)Nc1ccc(NC(=O)c2ccc(C(C)=O)o2)cc1 [Compound 25a] : what is it?
1130

---

assay: Tissue distribution study in rats; type: in vivo, SD rats; settings: male, Sprague-Dawley, rat, heart, single oral dose 100 mg/kg
measure-name: Tmax (min)
API: value field is a number in min; no unit string.

Quick one: Tmax for CC(=O)Nc1ccc(NC(=O)c2ccc(C(C)=O)o2)cc1 [Compound 25a] ?
48

---

assay: Tissue distribution study in rats; type: in vivo, SD rats; settings: male, Sprague-Dawley, rat, fat, single oral dose 100 mg/kg
measure-name: half-life (h)
The figure you give is taken to be in h; do not add the unit.

Give its half-life value. Item: CC(=O)Nc1ccc(NC(=O)c2ccc(C(C)=O)o2)cc1 [Compound 25a]
6.6

---

assay: Pharmacokinetic study in rats (plasma, LC-MS/MS, NCA); settings: male, Sprague-Dawley, rat, plasma, po, 25 mg/kg, F (oral bioavailability), rats, single p.o. 25 mg/kg
measure-name: bioavailability (%)
Provide only the numeric value, understood in %.

Returns the measured bioavailability for the input compound. Input: CC(=O)Nc1ccc(NC(=O)c2ccc(C(C)=O)o2)cc1 [Compound 25a]
20.1

---

test: Tissue distribution study in rats; format: in vivo, SD rats; details: male, Sprague-Dawley, rat, testis, single oral dose 100 mg/kg, read-out: Kp (tissue plasma distribution coefficient)
measure-name: Kp
The answer should be a number; do not append a unit.

Report Kp for CC(=O)Nc1ccc(NC(=O)c2ccc(C(C)=O)o2)cc1 [Compound 25a] please.
0.06

---

assay: Pharmacokinetic study in rats (plasma, LC-MS/MS, NCA); details: male, Sprague-Dawley, rat, plasma, po, 100 mg/kg, Mean plasma concentration, rats, 4 h, multiple p.o. 100 mg/kg
measure-name: concentration at 4 h (µg/mL)
Field: numeric (µg/mL). Do not append units.

What measured concentration at 4 h goes with CC(=O)Nc1ccc(NC(=O)c2ccc(C(C)=O)o2)cc1 [Compound 25a] ?
1.08

---

test: Tissue distribution study in rats; format: in vivo, SD rats; details: male, Sprague-Dawley, rat, liver, single oral dose 100 mg/kg
measure-name: half-life (h)
The response must be a number in h with no trailing unit.

Data request, read-out half-life, for CC(=O)Nc1ccc(NC(=O)c2ccc(C(C)=O)o2)cc1 [Compound 25a]
6.3

---

experiment: Pharmacokinetic study in rats (plasma, LC-MS/MS, NCA); details: male, Sprague-Dawley, rat, plasma, po, 50 mg/kg, Mean plasma concentration, rats, 12 h, single p.o. 50 mg/kg
measure-name: concentration at 12 h (ng/mL)
Numbers only; they are read as ng/mL.

Which concentration at 12 h is listed for CC(=O)Nc1ccc(NC(=O)c2ccc(C(C)=O)o2)cc1 [Compound 25a] ?
78.3

---

assay: Pharmacokinetic study in rats (plasma, LC-MS/MS, NCA); conditions: male, Sprague-Dawley, rat, plasma, po, 100 mg/kg
measure-name: AUC(0-inf) (ng·h/mL)
Response body: numeric value in ng·h/mL, unit text excluded.

Name the recorded AUC(0-inf) for CC(=O)Nc1ccc(NC(=O)c2ccc(C(C)=O)o2)cc1 [Compound 25a] .
12100

---

experiment: Pharmacokinetic study in rats (plasma, LC-MS/MS, NCA); conditions: male, Sprague-Dawley, rat, plasma, po, 25 mg/kg, MRT, rats, single p.o. 25 mg/kg
measure-name: MRT
Please answer using a numeric value trailed by its unit.

Find the recorded MRT belonging to CC(=O)Nc1ccc(NC(=O)c2ccc(C(C)=O)o2)cc1 [Compound 25a] and report it.
5.2 h

---

assay: Tissue distribution study in rats; assay type: in vivo, SD rats; settings: male, Sprague-Dawley, rat, bone, single oral dose 100 mg/kg, read-out: Kp (tissue plasma distribution coefficient)
measure-name: Kp
I'd appreciate a reply containing only the number, no unit.

Give its Kp value. Item: CC(=O)Nc1ccc(NC(=O)c2ccc(C(C)=O)o2)cc1 [Compound 25a]
0.4

---

test: Pharmacokinetic study in rats (plasma, LC-MS/MS, NCA); conditions: male, Sprague-Dawley, rat, plasma, po, 25 mg/kg, Mean plasma concentration, rats, 0.083 h, single p.o. 25 mg/kg
measure-name: concentration at 0.083 h (ng/mL)
Give a bare numeral; the unit ng/mL is implied.

Can you share its concentration at 0.083 h? I mean this compound: CC(=O)Nc1ccc(NC(=O)c2ccc(C(C)=O)o2)cc1 [Compound 25a]
282

---

test: Pharmacokinetic study in rats (plasma, LC-MS/MS, NCA); settings: male, Sprague-Dawley, rat, plasma, po, 100 mg/kg
measure-name: AUC(0-t) (ng·h/mL)
Please state the figure in ng·h/mL; there is no need to write the unit.

Look up AUC(0-t): CC(=O)Nc1ccc(NC(=O)c2ccc(C(C)=O)o2)cc1 [Compound 25a]
11800
